These measurements were taken from patent US20240376221A1.

Entries and their corrected association response values follow.
# SYSTEM: recombinant human OX40 (Acro Biosystems, cat. no. OXO-H5224) (human) (UniProt P43489)
# Sequence (P43489 29-216 limits assumed): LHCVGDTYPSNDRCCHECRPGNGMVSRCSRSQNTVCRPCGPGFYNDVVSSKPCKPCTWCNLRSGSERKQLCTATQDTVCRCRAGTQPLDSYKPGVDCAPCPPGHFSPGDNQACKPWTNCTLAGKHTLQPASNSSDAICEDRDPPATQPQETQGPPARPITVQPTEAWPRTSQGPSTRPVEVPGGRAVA
# ASSAY COMMENT: BLI cross-block; competitor (immobilized 1st Ab): IgG1-CD134-49B4-RRE
Dear colleague, please return just the value in nm, with no unit written.

Example entries begin here.
IgG1-CD134-ABBV368 (antibody, INN chains, looked up, V domains shown, IgG1) VH: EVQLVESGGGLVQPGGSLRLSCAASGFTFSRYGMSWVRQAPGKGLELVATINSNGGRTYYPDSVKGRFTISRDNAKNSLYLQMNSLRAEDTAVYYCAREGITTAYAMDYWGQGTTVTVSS VL: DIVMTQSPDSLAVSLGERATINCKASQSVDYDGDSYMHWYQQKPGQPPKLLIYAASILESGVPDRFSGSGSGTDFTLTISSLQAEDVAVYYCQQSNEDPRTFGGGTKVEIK = 0
IgG1-CD134-GBR830 (antibody, INN chains, looked up, V domains shown, IgG1) VH: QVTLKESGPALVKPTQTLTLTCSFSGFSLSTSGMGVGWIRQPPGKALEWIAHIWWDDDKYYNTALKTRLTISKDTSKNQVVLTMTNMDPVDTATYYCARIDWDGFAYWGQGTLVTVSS VL: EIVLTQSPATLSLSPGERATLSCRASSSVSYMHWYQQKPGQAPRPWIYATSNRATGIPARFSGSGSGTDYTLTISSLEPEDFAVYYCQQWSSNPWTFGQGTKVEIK = 0
IgG1-CD134-MEDI0562 (antibody, INN chains, looked up, V domains shown, IgG1) VH: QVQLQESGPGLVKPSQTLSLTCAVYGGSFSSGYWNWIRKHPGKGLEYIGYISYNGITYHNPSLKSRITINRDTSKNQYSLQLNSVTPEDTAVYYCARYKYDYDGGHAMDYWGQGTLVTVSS VL: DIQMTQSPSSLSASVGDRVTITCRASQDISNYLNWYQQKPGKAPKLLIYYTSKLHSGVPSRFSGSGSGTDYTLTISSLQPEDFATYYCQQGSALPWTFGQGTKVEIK = 0.15

Query block: Can you look up the measured corrected association response of IgG1-CD134-RG7888 (antibody, INN chains, looked up, V domains shown, IgG1) VH: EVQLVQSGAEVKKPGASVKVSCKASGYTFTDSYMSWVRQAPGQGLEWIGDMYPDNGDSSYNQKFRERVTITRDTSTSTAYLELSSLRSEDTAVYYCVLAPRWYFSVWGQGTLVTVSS VL: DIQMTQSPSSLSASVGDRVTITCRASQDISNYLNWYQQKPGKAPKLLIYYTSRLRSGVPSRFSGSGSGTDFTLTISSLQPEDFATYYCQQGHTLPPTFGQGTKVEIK for me?
Result block: 0.02
